Provenance of the data: patent US11261184B2

Molecular target: CDK8/cyclin C (Homo sapiens (Human), UniProt P49336)
Sequence (P49336 whole entry): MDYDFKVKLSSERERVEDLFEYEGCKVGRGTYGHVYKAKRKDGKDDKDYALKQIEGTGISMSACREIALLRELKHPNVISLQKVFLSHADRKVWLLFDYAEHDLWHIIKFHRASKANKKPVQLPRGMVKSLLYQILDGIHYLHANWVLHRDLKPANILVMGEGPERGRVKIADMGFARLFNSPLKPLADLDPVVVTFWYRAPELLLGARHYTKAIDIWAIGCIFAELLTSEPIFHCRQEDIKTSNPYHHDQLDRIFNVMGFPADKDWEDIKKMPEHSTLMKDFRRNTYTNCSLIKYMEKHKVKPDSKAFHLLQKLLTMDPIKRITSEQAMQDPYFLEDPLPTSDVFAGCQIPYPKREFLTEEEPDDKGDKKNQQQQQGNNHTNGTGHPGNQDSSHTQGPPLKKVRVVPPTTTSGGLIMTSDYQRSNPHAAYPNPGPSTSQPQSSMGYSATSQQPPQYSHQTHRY
Sequence (P24863 whole entry partner): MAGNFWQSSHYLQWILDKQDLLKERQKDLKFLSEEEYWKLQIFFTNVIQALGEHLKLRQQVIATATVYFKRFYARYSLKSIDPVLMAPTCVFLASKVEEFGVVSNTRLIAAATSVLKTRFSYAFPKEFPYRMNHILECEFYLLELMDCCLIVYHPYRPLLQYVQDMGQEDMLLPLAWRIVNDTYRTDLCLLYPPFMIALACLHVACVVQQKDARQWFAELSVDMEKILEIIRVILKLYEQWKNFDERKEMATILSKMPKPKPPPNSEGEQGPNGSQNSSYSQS
Assay: CDK8 biochemical assay (TR-FRET Kinase Tracer 236 displacement)
Conditions: 5 nM CDK8/cyclin C, 10 nM Kinase Tracer 236, 60 min
Measured pIC50 by item
Note on pIC50: it is the negative log10 of concentration, concentration in mol/L.

Please indicate pIC50 recorded for CN(CCO)C(=O)[C@H]1CCN(c2ccc(Oc3ccnc4c(F)cncc34)cc2)C1 [I-017]
8.74

Look up pIC50 of Cc1cncc2c(Oc3ccc(-c4cnn(CC(=O)N(C)C)c4)cc3)ccnc12 [I-041] and report it.
8.30

Input CC(=O)N1CCN(c2ccc(Oc3cc(N(C)C)nc4ccncc34)cc2)CC1 [I-027] , output reported pIC50.
8.35

Give the reported value of pIC50 for this record: CN(C)C(=O)C1CN(c2ccc(Oc3ccnc4c(F)cncc34)cc2)C1 [I-032]
8.68

// below: pIC50 requested for another molecule
Please report pIC50 for the following molecule: Clc1cncc2c(Oc3ccc(N4CCCC4)cc3)ccnc12 [I-003]
8.62

###

Target: CDK8/cyclin C (Homo sapiens (Human), UniProt P49336)
Experiment: CDK8 biochemical assay (TR-FRET Kinase Tracer 236 displacement)
Conditions: 5 nM CDK8/cyclin C, 10 nM Kinase Tracer 236, 60 min
assay_metric: log10(IC50) (log10 of the value in nM)
// stored as log10 of IC50 expressed in nM

Recorded log10(IC50), per entry:
Supply log10(IC50) value. Item: O=C([C@H]1CCN(c2ccc(Oc3ccnc4c(Cl)cncc34)cc2)C1)N1CCOCC1
0.08

Kindly indicate its recorded log10(IC50). Item: CN1CCN(C(=O)[C@H]2CCN(c3ccc(Oc4ccnc5c(Cl)cncc45)cc3)C2)CC1
0.11

State its log10(IC50) for this compound: CN(CCO)C(=O)[C@H]1CCN(c2ccc(Oc3ccnc4c(Cl)cncc34)cc2)C1
0.11

More entries:
Please look at this compound and report its log10(IC50): CC(=O)N1CCN(c2ccc(Oc3ccnc4ccncc34)cc2)CC1
0.67

Please report log10(IC50) for the following compound: CN(C)C(=O)Cn1cc(-c2ccc(Oc3ccnc4c(Cl)cncc34)cc2)cn1
0.43

Please supply the value of reported log10(IC50) for the item COc1cc(Oc2ccc(N3CCN(C(C)=O)CC3)cc2)c2cnccc2n1
1.15

Give the measured log10(IC50) for Cc1cncc2c(Oc3ccc(N4CCCC4)cc3)ccnc12
0.57

Given CN(C)C(=O)[C@H]1CCN(c2ccc(Oc3ccnc4ccncc34)cc2)C1 , respond with its log10(IC50).
0.20
